- Tested on: U2OS
- Protocol Text: Multiplex assay against U2OS
- Type: toxicity, cell-based
- Measurement Parameters: human, 12 h, 1 µM, compound concentration 1 uM, replicate 1
Reported Property: Population Healthy Nuclei (%)
Write down the numeric answer in % and omit the unit.

Write down Population Healthy Nuclei (%) measured for item CC(C)(C)c1ccc(S(=O)(=O)Nc2ccc(Cl)cc2C(=O)c2cc[n+]([O-])cc2)cc1 61

Write down Population Healthy Nuclei (%) measured for item COc1cc(C(=O)N(CCCc2ccccc2)Cc2ccc(CC(=O)O)cc2)cc(OC)c1C 60

Write down Population Healthy Nuclei (%) measured for item C[C@H](NC(=O)c1c(C(F)F)nn(C)c1Oc1cccc(C(F)(F)F)c1)c1ccc(C(=O)O)cc1 63

Write down Population Healthy Nuclei (%) measured for item Cc1ccc(C(C)(O)c2nc3ccccc3s2)c(C)c1 (stereo not given) 70

Write down Population Healthy Nuclei (%) measured for item O=C(O)Cc1ccccc1Nc1c(Cl)cccc1Cl 78
